assay-summary: folding stability dG unfold from chymotrypsin proteolysis; higher = more stable
Assign 1.0 whenever folding stability dG unfold does not fall below 0.6 kcal/mol; assign 0.0 whenever it does.

Take a look at these entries with their results.
Textbook exercise: given the entry SAGGSAGGSAPFENLPEDAKEVEITFDPSLSEEVRKALAEELKPRIEAQGIKYKFKIVPKSNLSAGGSAGGS [r12_456_JUSTAS] , state whether its folding stability dG unfold is greater than or equal to 0.6 kcal/mol. 0.0

Is the recorded value of folding stability dG unfold equal to or greater than 0.6 kcal/mol for this sequence? SAGGSAGGSANYMIKITIEYTPPNGKKEEVEVTVPGMPIDQLLNNLPPEYPVEIKDIEIYPGSAGGSAGGSA [r18_32_TrROS] 0.0

Decide: is the reported value of folding stability dG unfold for SAGGGSSVLSETVSVDPNNVTTTTTTYKAGDTTSTTTTTTTTTPPVPNLPLPPPPPVSPEAIALGLLLSAGG [r13_760_JUSTAS] equal to or greater than 0.6 kcal/mol? 0.0

Dear colleague, could you confirm whether SAGGSAGGSSGKYTITVTRKNPDGTPLGVFPIEVEGESEEEAKALAEELKNQPDVVEVKVTYVDSAGGSAGG [r6_475_JUSTAS] has folding stability dG unfold at or above 0.6 kcal/mol? 1.0

For this sequence, is measured folding stability dG unfold 0.6 kcal/mol or higher? SAGGSAGGSMTKTITTKTEEEAESEARRLLKEEGVPEGVEPTPITLESVDPEKGLYTFTVELESAGGSAGGS [r12_999_JUSTAS] 0.0

---
Please tell me: is the sequence SAGGDITITKNPENDYYTITLPLPNSNSTAVAFLDPKTGTAVVINPDNPLVLVLEPNGTLKEVKLLPPSAGG [r13_101_TrMRF] at or over 0.6 kcal/mol in terms of folding stability dG unfold? 0.0

Item SAGGKVTVENDTLTIPFPDGFTVEITLPPNDKTAVITLHTPPNNPLALAAAKAIADSLPDYKVEVRDESAGG [r13_34_TrMRF] with folding stability dG unfold of 0.6 kcal/mol or above? 1.0

Decide: is the reported value of folding stability dG unfold for SAGGSAGGSAGGGPGFTVLERREDPATGTVTILRRFAFPDGSTALEPRVVPRAPDERLESAGGSAGGSAGGS [r10_605_JUSTAS] equal to or greater than 0.6 kcal/mol? 0.0

Reported folding stability dG unfold at or above 0.6 kcal/mol? SAGGSAGGSGMTAEEAREKKVAELKAQGYTPVKVEVVETRTDPATGKVTTKIKIEYKSPKGLTSAGGSAGGS [r20_46_JUSTAS] 0.0

Is folding stability dG unfold at least 0.6 kcal/mol? Consider SAGGSMIEEAIEEALKKGLEKVEIEVEVEVNGKIYRVKMEIVKVEEGKVEIKIEVEEIDPETGKLISAGGSA [r2_420_TrROS_Hall] 1.0
